- EXPERIMENT SUMMARY: Solubility (shaking flask)
- Format: physicochemical
- MEASUREMENT PARAMETERS: phosphate buffer solution (PBS), aqueous buffer, thermodynamic from solid; PBS; 37° C. for 24 hours
- Procedure: The solubility for certain compounds were determined using the following protocol and procedure. 1) The solution, sterile water or phosphate buffer solution (PBS), was added to the test compound tube to make the final concentration 10 mg/mL. 2) The sample tube was vortexed and incubated at 37° C. for 24 hours. During the incubation period, the sample tube was vortexed several times. […] 6) Samples were quantified using an HPLC with UV detector. […]
Please enter Criterion met where solubility at 24 h is greater than or equal to 100 µg/mL, and Criterion not met where it is lower.

{"MOLECULE": "CC(=O)N[C@H](C(=O)OC[C@H]1O[C@@H](n2cc3c4c(ncnc42)NC(=O)C=C3N)C(C)(O)[C@@H]1O)C(C)C (stereo partly drawn)", "ANSWER LABEL": "Criterion met"}
{"MOLECULE": "CCCCCC(=O)OC[C@H]1O[C@@H](n2cc3c4c(ncnc42)NC(=O)C=C3N)[C@@](C)(O)[C@@H]1O (stereo in doubt)", "ANSWER LABEL": "Criterion met"}
{"MOLECULE": "CC(C)C(=O)OCOC(=O)NC1=CC(=O)Nc2ncnc3c2c1cn3[C@@H]1O[C@H](CO)[C@@H](OC(=O)C(C)C)C1(C)O (stereo partly drawn)", "ANSWER LABEL": "Criterion not met"}

Record CC(C)C(=O)OC[C@H]1O[C@@H](n2cc3c4c(ncnc42)NC(=O)C=C3N)[C@@](C)(O)[C@@H]1O (stereo in doubt) ; criterion: solubility at 24 h no lower than 100 µg/mL. Met?
Criterion met

Record CC(=O)OCOC(=O)NC1=CC(=O)Nc2ncnc3c2c1cn3[C@@H]1O[C@H](COC(C)=O)C(OC(C)=O)[C@@]1(C)O (stereo in doubt) ; criterion: solubility at 24 h no lower than 100 µg/mL. Met?
Criterion not met

Record CC12OC(=O)O[C@@H]1[C@@H](CO)O[C@H]2n1cc2c3c(ncnc31)NC(=O)C=C2N (stereo partly drawn) ; criterion: solubility at 24 h no lower than 100 µg/mL. Met?
Criterion met

* * *

- Test system: Caco-2 cells
- EXPERIMENT SUMMARY: in vitro
- Format: in vitro ADME
MEASURED QUANTITY: Permeability Papp (A to B) × 10^−6 cm/s (Caco-2 A-B)

{"MOLECULE": "CC(C)C(=O)OC[C@H]1O[C@@H](n2cc3c4c(ncnc42)NC(=O)C=C3N)[C@@](C)(O)[C@@H]1O (stereo in doubt)", "RESULT": "high"}
{"MOLECULE": "CC(=O)OC[C@H]1O[C@@H](n2cc3c4c(ncnc42)NC(=O)C=C3N)[C@@](C)(O)[C@@H]1O (stereo in doubt)", "RESULT": "low"}
{"MOLECULE": "CC(C)C(=O)OC[C@H]1O[C@@H](n2cc3c4c(ncnc42)NC(=O)C=C3N)[C@@]2(C)OC(=O)O[C@H]12", "RESULT": "high"}
{"MOLECULE": "CC(=O)O[C@@H]1[C@@H](CO)O[C@@H](n2cc3c4c(ncnc42)NC(=O)C=C3N)C1(C)O (stereo in doubt)", "RESULT": "medium"}
{"MOLECULE": "CCCCCC(=O)OC[C@H]1O[C@@H](n2cc3c4c(ncnc42)NC(=O)C=C3N)[C@@](C)(O)[C@@H]1OC(=O)CCCCC (stereo in doubt)", "RESULT": "high"}

Would you kindly look at the next entry?
Summary for this molecule, "CCCCCOC(=O)NC1=CC(=O)Nc2ncnc3c2c1cn3[C@@H]1O[C@H](CO)[C@@H](O)[C@@]1(C)O" : Permeability Papp (A to B) × 10^−6 cm/s (Caco-2 A-B) is medium

This collection of values is drawn from patent US20090062223A1.
